# PROTOCOL_NOTES: Dissociation constant at 37 degrees Centigrade
# Format: physicochemical
READOUT_LABEL: pKa
Answers are plain numbers.

get_value(item= COc1ccc2[nH]c([S+]([O-])Cc3ncc(C)c(OC)c3C)nc2c1 (stereo unspecified) , readout=pKa) returns 6.29

---

# PROTOCOL_NOTES: Half-life at pH 1.0
# Format: ADME
# MEASUREMENT_SETUP: buffer
Field: half-life. Provide a value for each of the compounds that follow.
Answers are plain numbers, in min.

Please review the following examples before continuing.
COMPOUND	VAL
COc1ccc2[nH]c([S+]([O-])Cc3nccc(N4CCOCC4)c3Cl)nc2c1 (stereo not drawn)	1
COc1ccc2[nH]c([S+]([O-])Cc3ncc(C)c(OC)c3C)nc2c1 (stereo not drawn)	2

Please turn your attention to the following entry.
get_value(item= COc1ccc2[nH]c([S+]([O-])Cc3ncc(C)c(N(C)C)c3Cl)nc2c1 (stereo not drawn) , readout=half-life) returns 1
